Target: Peptide 1: Biotin-…-[Tyr(PC)]-acid
Sequence (peptide, as listed by the source): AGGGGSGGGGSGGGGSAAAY
Assay: scFv ELISA

binder	OD450 / OD450
PcOxP_DB04_B07 (scFv, V domains shown, scFv in periplasmic extract) VH: EVQLLESGGGLVQPGGSLRLSCAASGPTFSDFYMEWVRQAPGKGLEWVAASRNKANGYTTEYADSVKGRFTISRDNSKNTLYLQMNSLRAEDTAVYYCARDYYGSSYWYFDVWGQGTLVTVSS VL: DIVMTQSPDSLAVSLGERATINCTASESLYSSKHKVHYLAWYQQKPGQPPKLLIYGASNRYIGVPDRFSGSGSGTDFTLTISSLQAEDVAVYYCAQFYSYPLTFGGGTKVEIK	0.93
